The reported numbers originate from ChEMBL document CHEMBL1127973.

Could you please report measured ID50 ratio for the items listed next?
# Subject Of Test: Tubulin (Homo sapiens) (UniProt P68371+Q9H4B7+P0DPH7+P68366+Q13509+Q71U36+P04350+Q3ZCM7+P07437+P68363+Q9BQE3+Q6PEY2+Q13885+Q9BVA1+Q9BUF5)
# Protocol: Binding affinity to microtubules, activity expressed as ID50 of compound/ID50 of paclitaxel
# Assay type: protein-complex assay
Numbers only.

# Smiles Input, Measured Property, Observed Value
records = [
    ("CC(=O)O[C@H]1C(=O)[C@@]2(C)[C@H]([C@H](OC(=O)c3ccccc3)[C@]3(O)C[C@H](OC(=O)[C@H](O)[C@@H](NC(=O)c4ccc(Cl)cc4)c4ccccc4)C(C)=C1C3(C)C)[C@]1(OC(C)=O)CO[C@@H]1C[C@@H]2O", "ID50 ratio", 2.4),
    ("CC(=O)O[C@H]1C(=O)[C@@]2(C)[C@H]([C@H](OC(=O)c3ccccc3)[C@]3(O)C[C@H](OC(=O)[C@H](O)[C@@H](NC(=O)c4ccccc4)c4ccc(Cl)c(Cl)c4)C(C)=C1C3(C)C)[C@]1(OC(C)=O)CO[C@@H]1C[C@@H]2O", "ID50 ratio", 7.1),
    ("CC(=O)O[C@@]12CO[C@@H]1C[C@H](O)[C@@]1(C)C(=O)[C@H](O)C3=C(C)[C@@H](OC(=O)[C@@H](O)[C@@H](NC(=O)c4ccccc4)c4ccccc4)C[C@@](O)([C@@H](OC(=O)c4ccccc4)[C@H]21)C3(C)C", "ID50 ratio", 1.3),
]

Can you look up the measured ID50 ratio of `CC(=O)O[C@H]1C(=O)[C@@]2(C)[C@H]([C@H](OC(=O)c3ccccc3)[C@]3(O)C[C@H](OC(=O)[C@H](O)[C@@H](NC(=O)C(C)=O)c4ccccc4)C(C)=C1C3(C)C)[C@]1(OC(C)=O)CO[C@@H]1C[C@@H]2O` for me?
3.5

---

Could you please report measured Log 1/ratio for the items listed next?
# Subject Of Test: Tubulin (Homo sapiens) (UniProt P68371+Q9H4B7+P0DPH7+P68366+Q13509+Q71U36+P04350+Q3ZCM7+P07437+P68363+Q9BQE3+Q6PEY2+Q13885+Q9BVA1+Q9BUF5)
# Protocol: Binding affinity to microtubules, activity expressed as log 1/ID50 of compound/ID50 of paclitaxel
# Type: protein-complex assay
One number for each entry.

Answered cases to consult:
# Smiles Input, Log 1/ratio
measured = [
    ("CC(=O)O[C@@]12CO[C@@H]1C[C@H](O)[C@@]1(C)C(=O)[C@H](O)C3=C(C)[C@@H](OC(=O)[C@H](NC(=O)OC(C)(C)C)[C@@H](O)c4ccccc4)C[C@@](O)([C@@H](OC(=O)c4ccccc4)[C@H]21)C3(C)C", -1),
    ("CC(=O)O[C@@]12CO[C@@H]1C[C@H](O)[C@@]1(C)C(=O)[C@H](O)C3=C(C)[C@@H](OC(=O)[C@H](O)[C@@H](NC(=O)c4ccccc4)c4ccccc4)C[C@@](O)([C@@H](OC(=O)c4ccccc4)[C@H]21)C3(C)C", -0.114),
    ("CC(=O)O[C@H]1C(=O)[C@@]2(C)[C@H]([C@H](OC(=O)c3ccccc3)[C@]3(O)C[C@H](OC(=O)[C@H](O)[C@@H](NC(=O)c4ccccc4)c4ccc(Cl)cc4)C(C)=C1C3(C)C)[C@]1(OC(C)=O)CO[C@@H]1C[C@@H]2O", -0.279),
]

Can you look up the measured Log 1/ratio of `CC(=O)O[C@@]12CO[C@@H]1C[C@H](O)[C@@]1(C)C(=O)[C@H](O)C3=C(C)[C@@H](OC(=O)[C@@H](O)Cc4ccccc4)C[C@@](O)([C@@H](OC(=O)c4ccccc4)[C@H]21)C3(C)C` for me?
-0.544
